Assay system: T1, monkey C5-mmh (monkey, UniProt P01031 19-1676 (human entry), limits assumed)
T1 construct: Expressed with a C-terminal myc-myc-hexahistidine tag
T1 chain: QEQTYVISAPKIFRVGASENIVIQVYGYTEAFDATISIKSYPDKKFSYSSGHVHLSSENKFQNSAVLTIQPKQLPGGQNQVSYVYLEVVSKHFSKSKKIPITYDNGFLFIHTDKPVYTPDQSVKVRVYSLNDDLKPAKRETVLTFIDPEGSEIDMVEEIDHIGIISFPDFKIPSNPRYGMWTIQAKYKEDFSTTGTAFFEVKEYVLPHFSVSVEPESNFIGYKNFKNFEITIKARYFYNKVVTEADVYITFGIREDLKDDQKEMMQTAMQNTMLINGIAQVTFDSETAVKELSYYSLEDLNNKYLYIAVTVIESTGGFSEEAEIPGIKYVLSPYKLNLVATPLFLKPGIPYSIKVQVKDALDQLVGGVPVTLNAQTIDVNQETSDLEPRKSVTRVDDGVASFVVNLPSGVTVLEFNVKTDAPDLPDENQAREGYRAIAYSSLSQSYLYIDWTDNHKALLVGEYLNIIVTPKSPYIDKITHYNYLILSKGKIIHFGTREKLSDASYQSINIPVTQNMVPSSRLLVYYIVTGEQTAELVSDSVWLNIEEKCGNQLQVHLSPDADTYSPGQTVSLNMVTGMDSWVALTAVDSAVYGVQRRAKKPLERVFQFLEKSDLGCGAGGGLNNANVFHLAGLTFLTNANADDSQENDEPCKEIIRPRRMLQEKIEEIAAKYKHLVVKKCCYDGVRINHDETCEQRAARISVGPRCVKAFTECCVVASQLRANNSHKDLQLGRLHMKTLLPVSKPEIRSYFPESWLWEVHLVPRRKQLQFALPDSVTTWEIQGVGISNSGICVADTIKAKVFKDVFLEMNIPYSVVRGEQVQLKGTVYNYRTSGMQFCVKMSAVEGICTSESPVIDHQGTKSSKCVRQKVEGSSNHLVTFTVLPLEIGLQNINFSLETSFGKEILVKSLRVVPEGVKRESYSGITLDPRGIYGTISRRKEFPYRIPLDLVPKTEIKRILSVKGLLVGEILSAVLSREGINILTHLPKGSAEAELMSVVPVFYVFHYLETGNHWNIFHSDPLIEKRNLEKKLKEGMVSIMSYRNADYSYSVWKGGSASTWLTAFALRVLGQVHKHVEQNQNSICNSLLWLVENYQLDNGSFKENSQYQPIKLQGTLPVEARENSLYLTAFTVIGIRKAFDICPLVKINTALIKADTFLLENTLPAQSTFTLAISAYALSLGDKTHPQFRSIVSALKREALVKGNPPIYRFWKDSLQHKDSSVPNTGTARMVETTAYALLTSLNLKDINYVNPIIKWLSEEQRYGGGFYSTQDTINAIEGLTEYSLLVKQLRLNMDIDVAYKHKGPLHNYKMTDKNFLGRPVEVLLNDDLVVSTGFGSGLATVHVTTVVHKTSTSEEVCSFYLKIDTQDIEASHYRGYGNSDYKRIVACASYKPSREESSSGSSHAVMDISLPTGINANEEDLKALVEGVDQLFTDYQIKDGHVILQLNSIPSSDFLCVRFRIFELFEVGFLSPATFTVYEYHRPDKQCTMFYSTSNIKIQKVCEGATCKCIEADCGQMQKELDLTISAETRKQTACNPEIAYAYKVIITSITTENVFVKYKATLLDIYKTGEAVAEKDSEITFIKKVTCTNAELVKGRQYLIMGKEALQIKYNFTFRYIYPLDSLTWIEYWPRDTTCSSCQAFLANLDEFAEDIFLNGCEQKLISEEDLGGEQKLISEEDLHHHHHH
Test summary: SPR, mAb captured by anti-hFc, 25C
Classify as follows. Reported t1/2 greater than or equal to 7 min: MET. Reported t1/2 below: NOT MET.

Could you please find out whether H4H12166P4 (antibody, human IgG4, V domains shown, human IgG4 Fc with S108P hinge mutation) VH: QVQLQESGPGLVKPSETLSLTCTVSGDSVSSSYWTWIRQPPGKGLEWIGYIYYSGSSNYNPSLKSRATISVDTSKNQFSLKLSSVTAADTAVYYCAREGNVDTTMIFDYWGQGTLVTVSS VL: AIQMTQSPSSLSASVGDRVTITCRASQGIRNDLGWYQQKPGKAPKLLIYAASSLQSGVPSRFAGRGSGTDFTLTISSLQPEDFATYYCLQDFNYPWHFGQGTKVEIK has t1/2 that meets 7 min or exceeds it? NOT MET

Is reported t1/2 greater than or equal to 7 min here: H4H12167P (antibody, human IgG4, V domains shown) VH: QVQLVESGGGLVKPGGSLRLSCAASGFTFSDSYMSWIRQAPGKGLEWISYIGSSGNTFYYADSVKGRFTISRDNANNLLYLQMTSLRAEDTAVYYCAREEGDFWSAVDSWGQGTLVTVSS VL: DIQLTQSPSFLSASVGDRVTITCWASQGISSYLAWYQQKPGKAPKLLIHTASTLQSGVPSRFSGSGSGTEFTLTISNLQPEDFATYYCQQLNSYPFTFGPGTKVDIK MET

Kindly determine if t1/2 recorded for H4H12166P8 (antibody, human IgG4, V domains shown, human IgG4 Fc with S108P hinge mutation) VH: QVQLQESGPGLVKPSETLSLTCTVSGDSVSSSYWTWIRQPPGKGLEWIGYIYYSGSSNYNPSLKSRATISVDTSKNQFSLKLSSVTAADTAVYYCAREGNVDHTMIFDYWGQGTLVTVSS VL: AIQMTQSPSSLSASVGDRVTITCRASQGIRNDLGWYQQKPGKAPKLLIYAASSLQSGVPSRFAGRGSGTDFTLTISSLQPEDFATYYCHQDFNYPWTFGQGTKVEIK is above or exactly 7 min. NOT MET

Identify whether the reported t1/2 of the following binder is 7 min or greater: H4H12163P (antibody, human IgG4, V domains shown) VH: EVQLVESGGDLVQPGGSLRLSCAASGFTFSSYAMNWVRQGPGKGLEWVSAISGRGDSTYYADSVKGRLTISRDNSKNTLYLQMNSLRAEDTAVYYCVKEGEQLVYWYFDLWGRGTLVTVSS VL: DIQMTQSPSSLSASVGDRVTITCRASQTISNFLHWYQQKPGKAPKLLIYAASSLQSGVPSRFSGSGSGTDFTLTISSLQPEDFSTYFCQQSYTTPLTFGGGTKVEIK MET

Reported t1/2 at or above 7 min? H4H12166P10 (antibody, human IgG4, V domains shown, human IgG4 Fc with S108P hinge mutation) VH: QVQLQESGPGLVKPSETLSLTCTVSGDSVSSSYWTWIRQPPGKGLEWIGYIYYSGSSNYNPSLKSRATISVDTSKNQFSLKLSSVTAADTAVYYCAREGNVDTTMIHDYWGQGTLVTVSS VL: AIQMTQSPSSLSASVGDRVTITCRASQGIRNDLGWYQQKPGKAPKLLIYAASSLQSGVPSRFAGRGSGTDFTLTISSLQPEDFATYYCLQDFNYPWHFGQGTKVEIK NOT MET

// inclusive: t1/2 at least 7 min? input: H4H12166P7 (antibody, human IgG4, V domains shown, human IgG4 Fc with S108P hinge mutation) VH: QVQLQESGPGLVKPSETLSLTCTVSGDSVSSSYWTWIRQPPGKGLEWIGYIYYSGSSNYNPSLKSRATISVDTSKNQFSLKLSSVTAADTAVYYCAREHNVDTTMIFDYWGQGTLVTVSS VL: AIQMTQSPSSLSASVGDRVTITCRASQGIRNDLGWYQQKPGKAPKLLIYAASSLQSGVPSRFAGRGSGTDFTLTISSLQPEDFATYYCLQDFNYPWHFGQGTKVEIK NOT MET

Hello, I need to know if H4H12170P (antibody, human IgG4, V domains shown) VH: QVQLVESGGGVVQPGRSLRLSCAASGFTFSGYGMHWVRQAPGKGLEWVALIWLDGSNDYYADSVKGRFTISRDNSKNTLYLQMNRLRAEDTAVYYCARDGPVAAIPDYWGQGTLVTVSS VL: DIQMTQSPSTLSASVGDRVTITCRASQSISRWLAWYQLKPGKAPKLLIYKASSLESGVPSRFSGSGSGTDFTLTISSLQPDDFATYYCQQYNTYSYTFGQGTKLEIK has measured t1/2 not below 7 min. Thanks! MET

Hello, the source for this data is patent US20170355757A1, in case you need it.
